System: ABUTH
Test: Post-emergence herbicidal action against ABUTH
Format: in vivo, Abutilon theophrasti
Conditions: application rate 80 g/ha, rated visually about 3 weeks after treatment
Protocol: [table] 2. Post-emergence herbicidal action against harmful plants and crop plant compatibility Seeds of monocotyledonous and dicotyledonous weeds and crop plants are placed in sandy loam in plastic or wood-fibre pots, covered with soil and cultivated in a greenhouse under controlled growth conditions. 2 to 3 weeks after sowing, the test plants are treated at the one-leaf stage. […]
Documented Herbicidal action against [%] ABUTH across a set of compounds

{"columns": ["compound", "Herbicidal action against [%] ABUTH / %"],
 "data": [
  ["O=C(OCC(F)(F)F)C1C=CC(NC(=O)C2(C(F)(F)F)CC(c3cc(Cl)cc(Cl)c3)=NO2)C1 (mixture of isomers)", 80],
  ["CC1(C(=O)NC2C=CC(C(=O)O)C2)CC(c2cc(F)cc(C#N)c2)=NO1 (mixture of isomers)", 80],
  ["CCOC(=O)[C@@H]1C=C[C@H](NC(=O)C2(OC)CC(c3cc(F)cc(F)c3)=NO2)C1 (stereo partly shown)", 80],
  ["COCCOC(=O)[C@@H]1C=C[C@H](NC(=O)[C@@]2(C(F)(F)F)CC(c3cc(F)cc(F)c3)=NO2)C1", 80],
  ["COC(=O)[C@@H]1C=C[C@H](NC(=O)C2(C(F)(F)F)CC(c3cc(C)cc(Cl)c3)=NO2)C1 (stereo partly shown)", 80],
  ["CCOCCOC(=O)[C@@H]1C=C[C@H](NC(=O)[C@@]2(C)CC(c3cc(F)cc(F)c3)=NO2)C1", 80],
  ["CCOC(=O)[C@@H]1C=C[C@H](NC(=O)C2(C(F)(F)F)CC(c3ccccc3)=NO2)C1 (stereo partly shown)", 80],
  ["CC1(C(=O)N[C@H]2CC=C(C(=O)OCc3ccccc3)C2)CC(c2cc(F)cc(F)c2)=NO1 (stereo partly shown)", 90],
  ["N#Cc1cccc(C2=NOC(C(=O)NC3C=CC(C(=O)O)C3)(C(F)(F)F)C2)c1 (mixture of isomers)", 90],
  ["CCOC(=O)C1=CC[C@H](NC(=O)C2(C)CC(c3cccc(F)c3)=NO2)C1 (stereo partly shown)", 80],
  ["C=CC1(C(=O)N[C@H]2CC=C(C(=O)OCC)C2)CC(c2cc(F)cc(F)c2)=NO1 (stereo partly shown)", 80],
  ["CC1(C(=O)N[C@H]2C=C[C@@H](C(=O)OCc3ccccc3)C2)CC(c2cc(F)cc(F)c2)=NO1 (stereo partly shown)", 90],
  ["CC1(C(=O)NC2C=CC(C(=O)OCCCl)C2)CC(c2cc(F)cc(C#N)c2)=NO1 (mixture of isomers)", 90],
  ["COC(=O)[C@@H]1C=C[C@H](NC(=O)C2(C(F)(F)F)CC(c3cc(F)cc(C#N)c3)=NO2)C1 (single isomer, unassigned)", 80],
  ["O=C(OCC(F)(F)F)C1C=CC(NC(=O)C2(C(F)(F)F)CC(c3cc(F)cc(F)c3)=NO2)C1 (mixture of isomers)", 90],
  ["CC1(C(=O)NC2C=CC(C(=O)O)C2)CC(c2cccc(C#N)c2)=NO1 (mixture of isomers)", 80]
]}
